B1: TPR t1 (parent)
chain: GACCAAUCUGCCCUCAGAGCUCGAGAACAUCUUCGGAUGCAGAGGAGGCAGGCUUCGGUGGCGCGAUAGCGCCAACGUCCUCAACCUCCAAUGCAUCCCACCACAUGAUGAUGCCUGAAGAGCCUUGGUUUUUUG

Variants of: B1
Procedure summary: polymerase ribozyme fitness, log enrichment relative to wild type (log ratio); higher = more active; in vitro selection for triplet polymerase activity
Property name: polymerase ribozyme fitness (log ratio)

# Var, polymerase ribozyme fitness (log ratio)
records = [
    ("C13U C73G C82A U87C C101A G110C G127A", -6.6),
    ("A74U G113U", -3.37),
    ("C15G C89U A90G", -2.42),
]

Reported polymerase ribozyme fitness (log ratio), variant G120U U130C : ____
0.002

Reported polymerase ribozyme fitness (log ratio), variant A43C C85U C115G : ____
-4.93

Reported polymerase ribozyme fitness (log ratio), variant A18U C40A C70A A121C : ____
-5.25

Reported polymerase ribozyme fitness (log ratio), variant C13U C72U A74C : ____
0.529

Reported polymerase ribozyme fitness (log ratio), variant A27G : ____
-1.52
